target: CBL-B (Homo sapiens, UniProt Q13191); construct: GST; test: CBL-B TR-FRET IC50 screening (E1/E2 ubiquitination, Biotin-Ubiquitin, Anti GST-Tb donor / Streptavidin-d2 acceptor); format: biochemical; conditions: CBL-B 10 nM final; 11-point titration from 100 uM; binned A-F; read-out: CBL-B TR-FRET activity IC50
Sequence (Q13191 whole entry): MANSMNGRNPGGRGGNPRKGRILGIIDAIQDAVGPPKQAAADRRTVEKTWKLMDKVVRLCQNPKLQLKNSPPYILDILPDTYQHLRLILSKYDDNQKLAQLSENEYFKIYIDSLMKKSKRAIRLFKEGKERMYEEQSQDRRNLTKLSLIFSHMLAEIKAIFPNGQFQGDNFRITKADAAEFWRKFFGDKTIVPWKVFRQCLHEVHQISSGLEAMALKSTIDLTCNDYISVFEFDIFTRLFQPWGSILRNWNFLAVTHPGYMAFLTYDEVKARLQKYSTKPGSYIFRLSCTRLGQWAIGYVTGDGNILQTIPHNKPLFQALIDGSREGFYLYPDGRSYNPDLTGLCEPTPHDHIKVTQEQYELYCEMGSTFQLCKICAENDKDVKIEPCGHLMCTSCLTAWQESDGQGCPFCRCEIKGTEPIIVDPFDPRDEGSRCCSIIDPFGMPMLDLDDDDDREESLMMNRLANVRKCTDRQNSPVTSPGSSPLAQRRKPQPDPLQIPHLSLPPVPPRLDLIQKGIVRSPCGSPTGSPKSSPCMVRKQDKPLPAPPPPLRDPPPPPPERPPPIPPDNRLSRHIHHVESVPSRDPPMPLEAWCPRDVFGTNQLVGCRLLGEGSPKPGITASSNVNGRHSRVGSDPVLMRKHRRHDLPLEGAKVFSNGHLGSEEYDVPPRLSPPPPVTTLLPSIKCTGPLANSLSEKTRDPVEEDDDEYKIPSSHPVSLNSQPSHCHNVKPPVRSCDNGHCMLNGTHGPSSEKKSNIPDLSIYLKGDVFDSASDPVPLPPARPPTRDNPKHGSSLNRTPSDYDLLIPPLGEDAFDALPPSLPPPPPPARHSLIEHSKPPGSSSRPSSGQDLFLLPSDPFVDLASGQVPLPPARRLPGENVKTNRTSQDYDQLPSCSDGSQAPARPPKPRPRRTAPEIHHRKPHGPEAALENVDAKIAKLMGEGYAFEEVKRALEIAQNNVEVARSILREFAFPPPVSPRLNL
EXPERIMENTAL_READOUT: IC50

q: CBL-B (Homo sapiens, UniProt Q13191) / IC50 / `C[C@H](Sc1nncn1C)c1cccc(-n2cc3c(C(F)(F)F)cccn3c2=O)c1` : value?
a: > 10000 nM

q: CBL-B (Homo sapiens, UniProt Q13191) / IC50 / `Cc1cc(-n2cc3c(C(F)(F)F)cc(CN4CCC[C@H](C)C4)cn3c2=O)cc(C2(Cc3nncn3C)COC2)c1` : value?
a: < 100 nM

q: CBL-B (Homo sapiens, UniProt Q13191) / IC50 / `Cc1[nH]nnc1[C@@H](c1cccc(-n2cc3c(C(F)(F)F)cc(CN4CCC[C@H](C)C4)cn3c2=O)c1)C1CCC1` : value?
a: < 100 nM

q: CBL-B (Homo sapiens, UniProt Q13191) / IC50 / C[C@H]1CCCN(Cc2cc(C(F)(F)F)c3cn(-c4cccc([C@@H](c5nncn5C)[C@H]5C[C@@H](CO)C5)c4)c(=O)n3c2)C1 (single isomer, unassigned) : value?
a: > 10000 nM

q: CBL-B (Homo sapiens, UniProt Q13191) / IC50 / `COC[C@@H]1CCCN1Cc1cc(C(F)(F)F)c2cn(-c3cccc([C@H](c4nncn4C)C4CCC4)c3)c(=O)n2c1` : value?
a: 1000 to 3000 nM

q: CBL-B (Homo sapiens, UniProt Q13191) / IC50 / C[C@H]1CCCN(Cc2cc(C(F)(F)F)c3cn(-c4cccc([C@@H](CC5CC5)c5nncn5C)c4)c(=O)n3c2)C1 [Compound 332-p2] : value?
a: < 100 nM

====

Give measured IC50 for each item. Keep answers brief.
target: CBL-B (Homo sapiens); construct: GST; assay: CBL-B TR-FRET IC50 screening (E1/E2 ubiquitination, Biotin-Ubiquitin, Anti GST-Tb donor / Streptavidin-d2 acceptor); format: biochemical; settings: second part of Table 2 (head 'Patent Cmpd No / Updated Activity'); same CBL-B TR-FRET IC50 bins A-F; read-out: Updated Activity

q: Dear colleague, I am looking for the recorded IC50 of the following molecule: CO[C@H]1C[C@](c2cccc(-n3cc4c(C(F)(F)F)cc([C@H](C)N5CCC(F)CC5)cn4c3=O)c2)(c2nncn2C)C1 (single isomer, unassigned)
a: < 100 nM

q: Dear colleague, I am looking for the recorded IC50 of the following molecule: Cn1cnnc1[C@H](c1cc(-c2ccsn2)cc(-n2cc3c(C(F)(F)F)cccn3c2=O)c1)C1CCC1 (single isomer, unassigned)
a: > 10000 nM

q: Dear colleague, I am looking for the recorded IC50 of the following molecule: C[C@H]1CCCN(Cc2cc(C(F)(F)F)c3cn(-c4cccc([C@@H](c5nncn5C)[C@H]5C[C@H](O)C5)c4)c(=O)n3c2)C1 (single isomer, unassigned)
a: < 100 nM

q: Dear colleague, I am looking for the recorded IC50 of the following molecule: COC1([C@@H](c2cccc(-n3cc4c(C(F)(F)F)cc(CN5CCC[C@H](C)C5)cn4c3=O)c2)c2nncn2C)CCC1 (single isomer, unassigned)
a: 301 to 1000 nM

q: Dear colleague, I am looking for the recorded IC50 of the following molecule: `C[C@@H]1C[C@H](C)CN(Cc2cc(C(F)(F)F)c3cn(-c4cccc([C@H](c5nncn5C)C5CCC5)c4)c(=O)n3c2)C1`
a: < 100 nM
